The reported measurements were obtained from the supplement of paper PMC10065799.

target: EPHB1 (UniProt P54762); experiment: phosphorylation enrichment, bacterial display (enrichment ratio); higher = better substrate or ligand; peptides without Tyr show the background;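 further: 11-residue human phosphosite peptides and single-mutation variants displayed on the E. coli surface, counted by deep sequencing, each peptide's frequency after selection divided by its frequency in the unselected input library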;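 further: frequency after pTyr selection over input frequency; kinase dosed for 20-30% of maximal phosphorylation in three min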
Sequence (P54762 whole entry, looked up): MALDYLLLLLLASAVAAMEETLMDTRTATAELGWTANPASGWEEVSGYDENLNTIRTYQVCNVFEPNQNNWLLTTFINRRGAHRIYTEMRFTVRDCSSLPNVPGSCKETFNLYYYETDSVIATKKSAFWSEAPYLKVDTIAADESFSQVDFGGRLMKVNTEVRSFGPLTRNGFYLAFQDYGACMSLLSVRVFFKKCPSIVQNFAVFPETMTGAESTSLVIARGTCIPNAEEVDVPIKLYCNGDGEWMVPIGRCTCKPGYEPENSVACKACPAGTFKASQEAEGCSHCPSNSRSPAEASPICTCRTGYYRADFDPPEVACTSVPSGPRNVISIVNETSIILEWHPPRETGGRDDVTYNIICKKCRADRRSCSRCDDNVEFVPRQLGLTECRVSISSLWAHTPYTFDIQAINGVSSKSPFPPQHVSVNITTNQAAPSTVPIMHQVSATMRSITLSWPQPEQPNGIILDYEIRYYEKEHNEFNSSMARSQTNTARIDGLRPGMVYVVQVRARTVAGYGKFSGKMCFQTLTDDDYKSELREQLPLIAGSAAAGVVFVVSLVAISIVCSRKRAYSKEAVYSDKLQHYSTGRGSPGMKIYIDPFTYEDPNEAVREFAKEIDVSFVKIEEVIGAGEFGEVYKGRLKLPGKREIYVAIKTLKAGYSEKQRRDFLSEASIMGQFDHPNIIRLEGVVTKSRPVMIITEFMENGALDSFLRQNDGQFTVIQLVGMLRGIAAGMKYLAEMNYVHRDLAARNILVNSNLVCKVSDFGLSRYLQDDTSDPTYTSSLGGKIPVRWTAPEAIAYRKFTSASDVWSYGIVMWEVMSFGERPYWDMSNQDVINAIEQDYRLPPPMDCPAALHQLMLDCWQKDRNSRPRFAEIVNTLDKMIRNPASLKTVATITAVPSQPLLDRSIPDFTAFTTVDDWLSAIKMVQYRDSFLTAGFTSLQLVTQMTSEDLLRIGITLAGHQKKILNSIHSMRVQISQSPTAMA
Please provide measured phosphorylation enrichment for the entries that follow.
Answers are plain numbers.

Below, 5 sequences whose answers are already recorded.
[
  {
    "Polymer Sequence": "SSYPDYLAAVD [GLB1_Y154_D151Y]",
    "phosphorylation enrichment": 0.518
  },
  {
    "Polymer Sequence": "LLNPSYNLPLD [TOM1L1_Y109_R108S]",
    "phosphorylation enrichment": 1.26
  },
  {
    "Polymer Sequence": "FADIAYNYRHR [PAH_Y166_G171R]",
    "phosphorylation enrichment": 0.391
  },
  {
    "Polymer Sequence": "SIGLGYHKDLQ [NF1_Y1169]",
    "phosphorylation enrichment": 0.34
  },
  {
    "Polymer Sequence": "EVASVYESYQP [MAVS_Y92_Q93E]",
    "phosphorylation enrichment": 0.948
  }
]

Record phosphorylation enrichment for all entries; do not skip any.
1. SHTPSYCDESL [RITA1_Y109]
2. CLGNQYVNVMN [SLC3A1_Y461_R456C]
3. PVDVAYRRGYF [PLEC_Y2967]
4. LSDVIYVILRK [PMP22_Y153_G150D]
5. HQNGMYGLHQD [SGSH_Y89]
6. SSPVPYLSPET [TJP1_Y931]
7. HDRNTYEKFLE [TF_Y666_G671E_YF]
8. IALNSCHSRNC [IFNGR1_Y397_Y397C]

0.462
0.588
0.385
0.57
0.346
0.442
0.525
0.337

Would you mind listing phosphorylation enrichment for each of the following sequences?
1. QFLMKYVWSAS [ABCD1_Y337]
2. CASQLYPRHKH [DCTN4_Y263]
3. GMEIVYVYVKK [DNAI2_Y5]
4. GMTLSYLFREP [NDUFS8_Y74]
5. FPDFVYKRIKA [DPYSL2_Y479]

[0.582, 0.43, 0.731, 0.501, 0.421]

Fill in phosphorylation enrichment for each of the 6 sequences listed.
1. EIIPFYGMSTF [FNDC3B_Y175_YF]
2. GFQPDYGQPAG [SYP_Y278_YF]
3. LRWREYQRQDF [PRKRIP1_Y90_R87W_YF]
4. EVVGGYSVHNA [MLH1_Y183_R182G]
5. SVTCTYSPDLN [TP53_Y126_A129D]
6. STASGYSDVTD [DTX2_Y425]

1. 0.532
2. 0.443
3. 1.91
4. 0.306
5. 0.757
6. 0.448

Provide each entry's phosphorylation enrichment from the list below.
1. DMLYQYLKQIE [RPAP3_Y569]
2. QLQTTYPSSDN [MAX_Y115_N114T]

1. 3.36
2. 0.445

For every item in the list below, what is its measured phosphorylation enrichment?
1. TSSAIYMNLAS [GATAD2B_Y317]
2. VFSIDYFRVGG [NTRK2_Y706_T704I_YF]
3. VKKKLDEEIDQ [CYP17A1_Y329_Y329D]
4. RFLERDIYNRE [HLA-DPB1_Y57_Y57D]
5. SEHLTYLEFKS [RASGRP1_Y215]
6. TLNVRHESVQA [CEACAM7_Y236_Y236H]
7. AAVDTYCRHNF [HLA-DRB1_Y107_YF]
8. LSGFGYRLSDQ [PDCD6_Y124]

[8.76, 0.874, 0.505, 1.74, 1.02, 0.38, 0.562, 0.64]

For every item in the list below, what is its measured phosphorylation enrichment?
1. LAVNPYGPPDL
2. IFCIQYNICAF [MYH4_Y820_R823C]
3. EWCSPYGLTPR [GRIN3B_Y601_R598C]
4. ADAGMYGVLPW [PLP1_Y207_R205G]
5. SSYDTYHLSRE [KIR3DL2_Y253_I252T]
6. KVKPIYFRTQG [AR_Y916_H918R]
7. IKKFKYGIEEH [GJA1_Y137]

[0.846, 0.686, 0.556, 1.76, 0.451, 0.356, 0.42]

Kindly give each listed record's phosphorylation enrichment.
1. TCFDKYTGSTY [FN1_Y101_N104S]
2. VSVVDYVEPSP [TXNRD2_Y70_A66S]
3. IYRASYYRRGD [LTK_Y676]
4. KLGDVYVNVAF [PGK1_Y161_D164V]
5. QDEHGYIFRCF [HSPB1_Y133_S135F]
6. EQLQSYQAEII [KRT33A_Y268]

1. 0.442
2. 0.595
3. 0.398
4. 0.801
5. 1.27
6. 0.524

For every record below, what is its phosphorylation enrichment?
1. QWRTKYEMDAI [MYH7_Y1375_T1377M]
2. PLFSKYWPNHI [GREB1L_Y1560_R1558S_YF]
3. ISKKHYAGLLF [POLD1_Y809_R808H]
4. APEVIYATPGA [ABLtide_2014]
5. ERDYTYDELLN [EIF2S2_Y176_E177D]
6. KNKNRSKNILP [PTPN11_Y279_Y279S]
7. PVGDAYKKKGL [NMNAT1_Y55]

0.479
1
0.317
3.19
0.742
0.686
0.501
